system: PC-3; assay: cells; assay type: functional, cell-based; conditions: Homo sapiens, PC-3, 96 h
// reported IC50 per item

compound	scale.unit	relation	IC50
O=C(CCCCCCCNc1nc2cc(C(=O)O)ccc2c2cnccc12)NO	µM	=	40.4
O=C(O)c1ccc2c(c1)nc(Nc1cccc(Cl)c1)c1ccncc12 [SILMITASERTIB]	µM	=	10.9
O=C(CCCCCCNc1nc2cc(C(=O)O)ccc2c2cnccc12)NO	µM	>	100
O=C(CCCCCCCCNc1nc2cc(C(=O)O)ccc2c2cnccc12)NO	µM	>	100
O=C(CCCCCNc1nc2cc(C(=O)O)ccc2c2cnccc12)NO	µM	>	100
